Taken from patent US11155546B2.

molecular target: BTK WT (Homo sapiens (Human))
Sequence (Q06187 whole entry): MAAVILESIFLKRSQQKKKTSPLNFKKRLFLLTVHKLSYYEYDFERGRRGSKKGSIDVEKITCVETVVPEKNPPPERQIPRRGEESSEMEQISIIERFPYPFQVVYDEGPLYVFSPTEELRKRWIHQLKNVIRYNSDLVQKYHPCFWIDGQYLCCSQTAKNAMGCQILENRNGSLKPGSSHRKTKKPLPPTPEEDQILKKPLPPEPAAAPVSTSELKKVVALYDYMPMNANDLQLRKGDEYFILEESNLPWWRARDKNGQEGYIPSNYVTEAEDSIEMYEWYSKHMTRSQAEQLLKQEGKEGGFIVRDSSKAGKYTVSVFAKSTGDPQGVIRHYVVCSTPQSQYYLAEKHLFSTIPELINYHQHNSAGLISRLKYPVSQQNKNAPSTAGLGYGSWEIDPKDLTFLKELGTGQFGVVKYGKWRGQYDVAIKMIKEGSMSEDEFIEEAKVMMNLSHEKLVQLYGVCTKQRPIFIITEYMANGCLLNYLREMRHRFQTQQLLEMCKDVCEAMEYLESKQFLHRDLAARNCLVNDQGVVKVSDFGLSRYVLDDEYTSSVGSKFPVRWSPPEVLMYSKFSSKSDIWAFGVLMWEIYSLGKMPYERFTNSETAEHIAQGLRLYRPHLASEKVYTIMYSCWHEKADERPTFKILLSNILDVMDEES
pIC50: −log10 of the molar value.
Rule: pIC50 of 8 or more gives class 1; anything lower gives class 0.

Sample answers from the record:
C=CC(=O)N1CCCC(Nc2nc(-c3cnn(C4CC4)c3)c3c(c2F)CNC3=O)C1 (stereo not drawn) [Compound G-45] :: class 0
C=CC(=O)N1CC(Nc2nc(Nc3ccc(OCCOC)cc3)c3c(c2F)CNC3=O)C1 [Compound G-5] :: class 0
C=CC(=O)N1CCC[C@@H](N(C)c2nc(-c3cnn(C)c3)c3c(c2F)CNC3=O)C1 [Compound G-113] :: class 1

Turning now to a further molecule:
Q: Hi, just wondering whether C=CC(=O)N1CCCC(Nc2nc(Nc3ccc(N4CCN(C)CC4)cn3)c3c(c2F)CNC3=O)C1 (stereo not drawn) [Compound G-12] shows pIC50 of 8 or higher.
Ans: class 0
